Tested on: Calu-3
Assay remarks: cell viability relative to DMSO; higher = less toxic
Applied conditions: 72 h; 1 nM
Value type: cell viability (%)
Field: numeric (%). Do not append units.

Example entries and their recorded answers appear below.
| Compound | Units symbol | cell viability |
| --- | --- | --- |
| COc1ccc(-c2nc3cc(C4=NNC(=O)CC4C)ccc3[nH]2)cc1 (stereo not drawn) | % | 98 |
| COCCCC/C(=N\OCCN)c1ccc(C(F)(F)F)cc1 | % | 102 |
| COc1cc(N2CCC(N3CCN(C)CC3)CC2)ccc1Nc1ncc(Cl)c(Nc2ccccc2S(=O)(=O)C(C)C)n1 | % | 97.2 |

Problem: Return reported cell viability; argument: `Nc1ncnc2c1c(-c1ccc(Oc3ccccc3)cc1)nn2C1CCCC1`
Solution: 105

Problem: Also need `C=Cc1c(C)c2cc3nc(c(CC(=O)O)c4[n-]c(cc5nc(cc1[n-]2)C(C)=C5CC)c(C)c4C(=O)O)[C@@H](CCC(=O)O)[C@@H]3C.[Cu+2]` , thanks.
Solution: 88.2

Problem: Also need `C[N+](C)(C)CCCCCCCCCC[N+](C)(C)C` , thanks.
Solution: 88.3

Problem: Also need C[C@]12CCC(=O)C[C@@H]1CC[C@@H]1[C@@H]2CC[C@]2(C)[C@@H](O)CC[C@@H]12 [Dihydrotestosterone] , thanks.
Solution: 97.6

Problem: Also need `Clc1cccc2c1CN(C1=NCCN1)C2` , thanks.
Solution: 97.1

* * *

System: Calu-3
Assay remarks: cell viability relative to DMSO; higher = less toxic
Applied conditions: 72 h; 1 nM
List of cell viability values.
Field: numeric (%). Do not append units.

Example entries and their recorded answers appear below.
| Molecule | Units symbol | cell viability |
| --- | --- | --- |
| C=C[C@H]1CN2CC[C@H]1C[C@H]2[C@H](O)c1ccnc2ccccc12 | % | 95.2 |
| CC(C)(O)CC(=O)O [beta-hydroxy-beta-methylbutyrate] | % | 98.7 |
| CNC[C@H](O)c1ccc(O)c(O)c1 [epinephrine] | % | 101 |
| Cc1c(NC(=O)c2cc3c(s2)CCCC3)cccc1-c1cn(C)c(=O)c(Nc2ccc(C3C(=O)N(C)CCN3C)cc2)n1 (stereo in doubt) | % | 96.6 |
| CN(C)C[C@H](O)Cn1c2ccc(Br)cc2c2cc(Br)ccc21 (racemic) | % | 110 |

Problem: Return reported cell viability; argument: CNC1CC(N)C(O)C(OC2OC(CO)C(O)C3OC4(OC(C(N)CO)C(O)C(O)C4O)OC23)C1O (centres undefined)
Solution: 95.7

Problem: Also need `CC(C)n1nnc2cc(C(=O)O)ccc21` , thanks.
Solution: 94.9

Problem: Also need `CN(C)CCCn1cc(C2=C(c3c[nH]c4ccccc34)C(=O)NC2=O)c2ccccc21` , thanks.
Solution: 105

Problem: Also need `Oc1ccc(Cl)cc1` , thanks.
Solution: 102

* * *

List of drug sensitivity score values.
Tested on: Vero E6
Assay remarks: drug sensitivity score (DSS) for viability; higher = more toxic; extreme values may be limits of the assay
Applied conditions: 72 h
Give the figure only, with no unit attached.

Example entries and their recorded answers appear below.
| Compound | Target system | drug sensitivity score |
| --- | --- | --- |
| N=C(N)SCc1ccc(B(O)O)cc1 | Vero E6 | 0 |
| CC(C)OC(=O)CNC(=O)[C@H](CS)NC(=O)CC[C@H](N)C(=O)O | Vero E6 | 0 |
| O=C(O)CNC(=O)C(CS)Cc1ccccc1 (stereo not given) | Vero E6 | 0 |
| CCOC(=O)[C@@]1(CCCCCCOc2ccc(Cl)cc2)CO1 | Vero E6 | 0 |
| CO/N=C(\C(=O)N[C@@H]1C(=O)N2C(C(=O)O)=C(CSc3nc(=O)c(O)nn3C)CS[C@H]12)c1csc(N)n1 | Vero E6 | 0 |
| CCCCCCCCCCCCCCSCC(=O)O | Vero E6 | 0 |

Problem: Form field - read-out: drug sensitivity score; system: Vero E6; submitted item: CCCCCCCCCCCCOS(=O)(=O)O [dodecyl-sulfate]
Solution: 0

Problem: Also need `CN1CCN(CCOc2cc(OC3CCOCC3)c3c(Nc4c(Cl)ccc5c4OCO5)ncnc3c2)CC1` , thanks.
Solution: 8

Problem: Also need `O=C(O)c1nc(=O)[nH]c(=O)[nH]1` , thanks.
Solution: 0

Problem: Also need CC(=O)N[C@@H](CCC(N)=O)C(=O)O [aceglutamide] , thanks.
Solution: 0.3
